measured.attribute: melting point (°C)

1 = Cc1ccc(S(=O)(=O)OCCN2C(=O)c3cccc4cc5ccccc5c(c34)C2=O)cc1
2 = O=C1CCCCCN1C(=O)N1CCCCCC1=O
When their melting point values are compared, which is larger, 1 or 2 ? Answer by quoting the chosen item's label.
1
(1: 240 °C, 2: 115 °C)

###

measured.attribute: melting point

CCCNC(=O)c1c(OCc2ccc(-c3ccccc3-c3nnn[nH]3)cc2)cc(C)nc1C | 196 to 198 °C

Briefly, melting point measured for `COc1ccc(-c2sc3c(c2CN(C)Cc2ccccc2)c(=O)c(C(C)=O)cn3Cc2ccccc2F)cc1` : 185 to 193 °C

Briefly, melting point measured for `CCOC(=O)c1ccc(OCCCCCCc2cccc(O)c2O)cc1` : 45 to 47 °C

Briefly, melting point measured for `O=C(O)COc1cccc(C=Cc2nc(-c3ccccc3)c(-c3ccccc3)o2)c1` : 213 to 215 °C

Briefly, melting point measured for CC(C)C1CCN(Cc2ccc(COc3cccc4c3C(=O)N(C3CCC(=O)NC3=O)C4=O)cc2)CC1 (stereo unspecified) : 220 to 222 °C

Briefly, melting point measured for `COc1ccc(S(=O)(=O)N2CCc3cccc(-c4ccc(F)cc4)c32)cc1` : 178 to 179 °C

Briefly, melting point measured for `CS(=O)(=O)c1ccc(-c2sc(-c3ccccc3Cl)nc2-c2ccc(Cl)cc2)cc1` : 177 to 179 °C

Briefly, melting point measured for `CCCCCc1nc2c(Nc3ccc(Cl)c(Cl)c3)nc3ccccc3c2[nH]1` : 195 to 200 °C

Briefly, melting point measured for `NC(=O)C(OCc1ccc(Cl)cc1)(C(F)(F)F)C(F)(F)F` : 94 to 95 °C

Briefly, melting point measured for `CCN(CC)C(=O)n1ccc(S(=O)(=O)c2c(F)cccc2F)n1` : 83 to 83.5 °C

Briefly, melting point measured for `CCNC(=O)Nc1cnc2ccc(Cl)nc2n1` : 240 °C

Briefly, melting point measured for `c1ccc(-c2ncc(-c3ncco3)cn2)cc1` : 175 to 177 °C

Briefly, melting point measured for `CCOC(=O)c1cnc2c3cc(N)ccc3c(C)cn2c1=O` : 245 to 248 °C

Briefly, melting point measured for O=C1CCC(N2C(=O)c3cccc(OCc4ccc(CN5CCc6ncccc6C5)cc4)c3C2=O)C(=O)N1 (stereo unspecified) : 165 to 167 °C

Briefly, melting point measured for `COc1ccc(C[C@H](NC(=O)OCc2ccccc2)C(=O)N2CCN(CC(=O)OC(C)(C)C)C(=O)[C@@H]2CCCNC(=O)OCc2ccccc2)cc1` : 138 to 140 °C

Briefly, melting point measured for O[C@@H]1CCCC[C@H]1Nc1nc(Cl)ncc1Cl (relative stereo) : 139 to 142 °C

###

Collected melting point values appear next to each entry.

Consider the reported melting point for these compounds:
CNC(=O)c1cc(C)c(C(c2cc(F)ccc2F)S(=O)(=O)c2ccc(Cl)cc2)cn1 (stereo not given) | 200 to 201 °C
Cc1cc(-c2nc3cc(OCCOC(C)C)cc(OCCOC(C)C)c3c(=O)[nH]2)cc(C)n1 | 124 to 125 °C
COc1ccc(C(=O)Cc2ccncc2Cl)cc1OC1CCCC1 | 124 to 125 °C

Briefly, melting point measured for `C[C@@H]1CN(C(=O)[C@@](C)(O)C(F)(F)F)[C@@H](C)CN1S(=O)(=O)c1ccc(C(=O)O)cc1` : 194 to 196 °C

Briefly, melting point measured for `CC(C)n1nc(-c2sc(NC(=O)c3ccc(Cn4ccnc4)cc3)nc2-c2ccccc2)ccc1=O` : > 250 °C

Briefly, melting point measured for `O=C(CCC(=O)N1CCC[C@H]1C(=O)O)c1ccc(Br)s1` : 166 to 168 °C

Briefly, melting point measured for `N#CC(=Cc1cccnc1)c1ccc(Cl)cc1` : 141 to 143 °C

Briefly, melting point measured for `CCN(CC)CCNc1ccc(N2CCOC2=O)cc1[N+](=O)[O-]` : 124 °C

Briefly, melting point measured for `CCCCNC(=O)Oc1cccc(NC(=O)C=C(C)OC)c1` : 166 °C

Briefly, melting point measured for `O=c1[nH]c2cc([N+](=O)[O-])c(S(=O)(=O)NCCO)cc2[nH]c1=O` : 281 to 289 °C
